# Assay target: S1P1 (membranes from S1P1/CHO cells) (Homo sapiens (Human), UniProt P21453)
# Sequence (P21453 whole entry): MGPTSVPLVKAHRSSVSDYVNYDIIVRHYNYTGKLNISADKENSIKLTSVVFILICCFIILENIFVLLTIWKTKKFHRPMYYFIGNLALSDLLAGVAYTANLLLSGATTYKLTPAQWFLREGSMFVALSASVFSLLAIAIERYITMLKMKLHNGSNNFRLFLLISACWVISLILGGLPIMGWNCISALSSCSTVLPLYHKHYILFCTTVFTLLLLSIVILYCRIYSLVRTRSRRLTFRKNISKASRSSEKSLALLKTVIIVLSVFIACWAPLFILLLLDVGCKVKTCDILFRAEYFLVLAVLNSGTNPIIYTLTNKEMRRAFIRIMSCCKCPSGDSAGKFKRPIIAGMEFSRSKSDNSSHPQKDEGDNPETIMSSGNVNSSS
# Procedure details: Receptor [35S] GTPγS Binding Assay, S1P1
# Applied conditions: S1P1/CHO cell membranes; rounded to two digits
pEC50: −log10 of the molar value.
Property: pEC50

Sample answers from the record:
- O=C(O)C1CN(Cc2ccc3c(c2)CCc2c-3n[nH]c2-c2onc(-c3ccccc3)c2C(F)(F)F)C1: 6.01
- CC(N)(CO)CCc1ccc2c(c1)CCc1c-2noc1-c1noc(-c2ccccc2)c1C(F)(F)F (single isomer, unassigned): 7.40
- CC(C)Oc1ccc(-c2onc3c2CCc2cc(CN4CC(C(=O)O)C4)ccc2-3)cc1C(F)(F)F: 7.96

(P) Oc1ccc2c(c1)CCc1c-2noc1-c1cc(-c2ccccc2)on1
(Q) CCCc1ccc(-c2onc3c2COc2cc(CN4CC(C(=O)O)C4)ccc2-3)cc1
(R) OCC1COCCN1Cc1ccc2c(c1)CCc1c-2noc1-c1noc(-c2ccccc2)c1C(F)(F)F (stereo not shown)
### Prompt Hello, I need these entries ordered by pEC50, highest reading first. Thanks! Ranked list of labels, please, in the requested order.
### Response Q, R, P
(Q: 8.92, R: 6.39, P: 4.82)

---

# Assay target: S1P3 (membranes from EDG3-Ga15-bla HEK293T cells) (Homo sapiens (Human))
# Procedure details: Receptor [35S] GTPγS Binding Assay, S1P3
# Applied conditions: EDG3-Ga15-bla HEK293T cell membranes; rounded to two digits
pEC50: −log10 of the molar value.
Property: pEC50

Sample answers from the record:
* N#CC1(NC(=O)[C@H](O)c2ccc3c(c2)CCc2c-3noc2-c2noc(-c3ccccc3)c2C(F)(F)F)CC1 (stereo in doubt) | 5.07
* O=C(O)[C@H]1CCCN(Cc2ccc3c(c2)CCc2c-3noc2-c2noc(-c3ccccc3)c2C(F)(F)F)C1 | 5.33
* CC(C)Cc1onc(-c2onc3c2CCc2cc(CN4CC(C(=O)O)C4)ccc2-3)c1C(F)(F)F | 5.82

(a) O=C(O)C1CN(Cc2ccc3c(c2)CCc2c-3noc2-c2noc(-c3ccccc3)c2C(F)(F)F)C1
(b) CCCc1ccc(-c2noc3c2COc2cc(CN4CC(C(=O)O)C4)ccc2-3)cc1
(c) CCCc1ccc(-c2onc3c2COc2cc(CN4CC(C(=O)O)C4)ccc2-3)cc1
(d) CC(N)(CCc1ccc2c(c1)CCc1c-2noc1-c1noc(-c2ccccc2)c1C(F)(F)F)C(=O)O (single isomer, unassigned)
### Prompt Hello, I need these entries ordered by pEC50, highest reading first. Thanks! Ranked list of labels, please, in the requested order.
### Response b, a, c, d
(b: 5.89, a: 5.36, c: 5.09, d: 4.79)

---

# Assay target: S1P3 (membranes from EDG3-Ga15-bla HEK293T cells) (Homo sapiens (Human), UniProt Q99500)
# Sequence (Q99500 whole entry): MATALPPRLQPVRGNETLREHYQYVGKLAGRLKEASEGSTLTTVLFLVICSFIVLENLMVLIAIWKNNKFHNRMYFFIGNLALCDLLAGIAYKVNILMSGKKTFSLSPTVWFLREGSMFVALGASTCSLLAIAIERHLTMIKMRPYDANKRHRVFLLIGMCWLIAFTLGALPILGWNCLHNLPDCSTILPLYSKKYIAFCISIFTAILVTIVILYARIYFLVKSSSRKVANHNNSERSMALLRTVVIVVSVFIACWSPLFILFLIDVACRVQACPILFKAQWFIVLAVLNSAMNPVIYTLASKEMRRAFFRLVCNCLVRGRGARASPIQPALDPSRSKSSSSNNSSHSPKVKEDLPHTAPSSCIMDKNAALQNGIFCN
# Procedure details: Receptor [35S] GTPγS Binding Assay, S1P3
# Applied conditions: EDG3-Ga15-bla HEK293T cell membranes; rounded to two digits
Property: EC50 (µM)

(a) CC(C)Oc1ccc(-c2onc3c2CCc2cc(CNCCC(=O)O)ccc2-3)cc1C#N
(b) CC(C)Cc1ccc(-c2onc3c2CCc2cc(CN4CC(C(=O)O)C4)ccc2-3)cc1C(F)(F)F
### Prompt When a and b are compared, which has the higher number for EC50? Lab note: record the label of whichever item you select.
### Response a

---

# Assay target: S1P1 (membranes from S1P1/CHO cells) (Homo sapiens (Human))
# Procedure details: Receptor [35S] GTPγS Binding Assay, S1P1
# Applied conditions: S1P1/CHO cell membranes; rounded to two digits
Property: EC50 (nM)

Sample answers from the record:
- CC(C)Cc1ccc(-c2onc3c2CCc2cc(CN4CC(C(=O)O)C4)ccc2-3)cc1C(F)(F)F: 0.73
- O=C(O)C1CN(Cc2cc3c(cc2F)-c2noc(-c4onc(-c5ccccc5)c4C(F)(F)F)c2CC3)C1: 0.76
- O=C(O)C1CN(Cc2ccc3c(c2)CCc2c-3noc2-c2noc(-c3ccccc3)c2C(F)(F)F)C1: 0.59
- CC(C)Cc1ccc(-c2onc3c2CCc2cc(O)ccc2-3)cc1: 1600
- CC(N)(CCc1ccc2c(c1)CCc1c-2noc1-c1noc(-c2ccccc2)c1C(F)(F)F)C(=O)O (single isomer, unassigned): 12
- CCCc1ccc(-c2noc3c2COc2cc(CN4CC(C(=O)O)C4)ccc2-3)cc1: 1.3

(a) CCCc1ccc(-c2noc3c2CCc2cc(CN4CC(C(=O)O)C4)ccc2-3)cc1
(b) OCc1ccc2c(c1)CCc1c-2noc1-c1cccc(C(F)(F)F)c1
### Prompt Lowest EC50? choose a or b Lab note: record the label of whichever item you select.
### Response a

---

# Assay target: S1P1 (membranes from S1P1/CHO cells) (Homo sapiens (Human))
# Procedure details: Receptor [35S] GTPγS Binding Assay, S1P1
# Applied conditions: S1P1/CHO cell membranes; rounded to two digits
pEC50: −log10 of the molar value.
Property: pEC50

Sample answers from the record:
* CC(C)Oc1ccc(-c2onc3c2CCc2cc(CNCCC(=O)O)ccc2-3)cc1C#N | 7.62
* CC(C)Cc1onc(-c2onc3c2CCc2cc(CN4CC(C(=O)O)C4)ccc2-3)c1C(F)(F)F | 9.13
* O=C(O)C1CN(Cc2ccc3c(c2)OCc2c-3noc2-c2onc(-c3ccccc3)c2C(F)(F)F)C1 | 9.49
* N#CC1(NC(=O)[C@H](O)c2ccc3c(c2)CCc2c-3noc2-c2noc(-c3ccccc3)c2C(F)(F)F)CC1 (stereo in doubt) | 8.77
* Oc1ccc2c(c1)CCc1c-2noc1-c1cc(-c2ccccc2Cl)n(-c2ccccc2)n1 | 6.60

(a) CCCc1ccc(-c2onc3c2CCc2cc(OC[C@H](O)CO)ccc2-3)cc1
(b) O=C(O)C1CN(Cc2ccc3c(c2)CCc2c-3noc2-c2onc(-c3ccccc3)c2C(F)(F)F)C1
### Prompt Lowest pEC50? choose a or b Lab note: record the label of whichever item you select.
### Response a
(a: 5.20, b: 7.24)

---

pIC50: −log10 of the molar value.
Quick record of pIC50 values for human S1P1 (Homo sapiens (Human), UniProt P21453).
Property: pIC50

- CC(N)(CCc1ccc2c(c1)CCc1c-2noc1-c1noc(-c2ccccc2)c1C(F)(F)F)C(=O)O (single isomer, unassigned): 7.80
- CC(C)Cc1ccc(-c2onc3c2CCc2cc(CN4CC(C(=O)O)C4)ccc2-3)cc1C(F)(F)F: 9.01
- CCCc1ccc(-c2onc3c2CCc2cc(OC[C@H](O)CO)ccc2-3)cc1: 6.41
- N#CC1(NC(=O)[C@H](O)c2ccc3c(c2)CCc2c-3noc2-c2noc(-c3ccccc3)c2C(F)(F)F)CC1 (stereo in doubt): 8.39
- Oc1ccc2c(c1)CCc1c-2noc1-c1cc(-c2ccccc2Cl)n(-c2ccccc2)n1: 6.60

(P) Oc1ccc2c(c1)CCc1c-2noc1-c1cc(-c2ccccc2)on1
(Q) CC(C)Cc1ccc(-c2onc3c2CCc2cc(O)ccc2-3)cc1
### Prompt Lowest pIC50? choose P or Q Lab note: record the label of whichever item you select.
### Response P

---

# Assay target: S1P3 (membranes from EDG3-Ga15-bla HEK293T cells) (Homo sapiens (Human), UniProt Q99500)
# Procedure details: Receptor [35S] GTPγS Binding Assay, S1P3
# Applied conditions: EDG3-Ga15-bla HEK293T cell membranes; rounded to two digits
pEC50: −log10 of the molar value.
Property: pEC50

Sample answers from the record:
- OCc1ccc2c(c1)CCc1c-2noc1-c1cccc(C(F)(F)F)c1: < 4.51
- CCCc1ccc(-c2noc3c2CCc2cc(CN4CC(C(=O)O)C4)ccc2-3)cc1: < 4.51
- CC(C)Cc1ccc(-c2onc3c2CCc2cc(O)ccc2-3)cc1: < 4.20
- CC(C)Oc1ccc(-c2onc3c2CCc2cc(CN4CC(C(=O)O)C4)ccc2-3)cc1C(F)(F)F: < 4.51
- O=C(O)C1CN(Cc2ccc3c(c2)CCc2c-3noc2-c2onc(-c3ccccc3)c2C(F)(F)F)C1: < 4.51

Here is another molecule to look at.
### Prompt Supply measured pEC50 of Oc1ccc2c(c1)CCc1c-2noc1-c1cc(-c2ccccc2Cl)n(-c2ccccc2)n1 in your reply.
### Response < 4.51

---

# Assay target: S1P3 (membranes from EDG3-Ga15-bla HEK293T cells) (Homo sapiens (Human))
# Procedure details: Receptor [35S] GTPγS Binding Assay, S1P3
# Applied conditions: EDG3-Ga15-bla HEK293T cell membranes; rounded to two digits
Property: EC50

Sample answers from the record:
- O=C(O)C1CN(Cc2ccc3c(c2)OCc2c-3noc2-c2onc(-c3ccccc3)c2C(F)(F)F)C1: > 31 µM
- O=C(O)C1CN(Cc2cc3c(cc2F)-c2noc(-c4onc(-c5ccccc5)c4C(F)(F)F)c2CC3)C1: 14.7 µM

### Prompt Tell me EC50 of CCCc1ccc(-c2onc3c2CCc2cc(OC[C@H](O)CO)ccc2-3)cc1 when tested on S1P3 (membranes from EDG3-Ga15-bla HEK293T cells) (Homo sapiens (Human)).
### Response > 31 µM

### Prompt Tell me EC50 of OCC1COCCN1Cc1ccc2c(c1)CCc1c-2noc1-c1noc(-c2ccccc2)c1C(F)(F)F (stereo not shown) when tested on S1P3 (membranes from EDG3-Ga15-bla HEK293T cells) (Homo sapiens (Human)).
### Response > 63 µM
